Target: Tyrosine-protein kinase Yes (Homo sapiens, UniProt P07947)
Assay: Inhibition of recombinant full length human N-terminal GST-tagged YES (1 to 543 residues) expressed in baculovirus expression system
pIC50: −log10 of the molar value.
Result Type: pIC50

The compound `COc1cc2ncccc2cc1NC(=O)c1csc2cncnc12` showed pIC50 equal to < 4.30

----------
Target: RAF proto-oncogene serine/threonine-protein kinase (Homo sapiens)
Sequence (P04049 whole entry, the tested form may be a part): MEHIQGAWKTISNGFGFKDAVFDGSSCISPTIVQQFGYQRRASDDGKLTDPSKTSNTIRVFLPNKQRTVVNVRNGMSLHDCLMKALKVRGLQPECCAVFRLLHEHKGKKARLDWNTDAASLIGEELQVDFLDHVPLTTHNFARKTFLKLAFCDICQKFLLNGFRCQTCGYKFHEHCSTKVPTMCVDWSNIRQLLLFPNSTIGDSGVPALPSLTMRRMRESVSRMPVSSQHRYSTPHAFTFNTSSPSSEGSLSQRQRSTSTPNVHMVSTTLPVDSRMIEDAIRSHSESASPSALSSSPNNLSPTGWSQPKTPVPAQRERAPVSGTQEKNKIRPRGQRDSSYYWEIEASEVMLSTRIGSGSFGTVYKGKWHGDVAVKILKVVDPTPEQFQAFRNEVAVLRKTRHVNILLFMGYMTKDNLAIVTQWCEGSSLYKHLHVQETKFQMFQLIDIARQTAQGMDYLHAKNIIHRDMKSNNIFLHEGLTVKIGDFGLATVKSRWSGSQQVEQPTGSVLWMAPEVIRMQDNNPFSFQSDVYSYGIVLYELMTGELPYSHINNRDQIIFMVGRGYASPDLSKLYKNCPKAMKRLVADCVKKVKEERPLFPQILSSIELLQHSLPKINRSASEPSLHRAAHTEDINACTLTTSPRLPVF
Test: Inhibition of recombinant human N-terminal GST-tagged RAF1 catalytic domain (306 to 648 residues) expressed in baculovirus expression system
pIC50: −log10 of the molar value.
Result Type: pIC50

RAF proto-oncogene serine/threonine-protein kinase (Homo sapiens) pIC50 of `COc1cc2ncccc2cc1NC(=O)c1csc2cncnc12` is < 4.30

----------
Molecular target: Mitogen-activated protein kinase kinase kinase 7 (Homo sapiens, UniProt O43318)
Sequence (O43318 whole entry, the tested form may be a part): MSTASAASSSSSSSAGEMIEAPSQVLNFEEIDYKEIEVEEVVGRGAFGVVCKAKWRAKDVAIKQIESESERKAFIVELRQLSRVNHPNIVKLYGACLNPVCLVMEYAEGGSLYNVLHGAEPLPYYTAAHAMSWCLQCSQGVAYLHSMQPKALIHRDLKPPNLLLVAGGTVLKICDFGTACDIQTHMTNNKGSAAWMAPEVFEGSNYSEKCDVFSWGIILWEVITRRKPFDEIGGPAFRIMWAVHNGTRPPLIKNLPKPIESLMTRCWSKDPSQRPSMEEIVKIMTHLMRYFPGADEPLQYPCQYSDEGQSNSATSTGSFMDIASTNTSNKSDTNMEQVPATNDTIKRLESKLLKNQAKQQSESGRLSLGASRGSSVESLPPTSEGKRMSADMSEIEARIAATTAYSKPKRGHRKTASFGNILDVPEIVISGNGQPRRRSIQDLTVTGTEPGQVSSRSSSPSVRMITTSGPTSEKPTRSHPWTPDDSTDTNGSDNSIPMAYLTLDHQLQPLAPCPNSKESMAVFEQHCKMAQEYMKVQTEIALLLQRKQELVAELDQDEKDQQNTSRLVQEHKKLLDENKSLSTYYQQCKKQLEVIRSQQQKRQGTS
Experiment: Binding affinity to recombinant human biotinylated N-terminal GST-tagged autophosphorylated TAK1 (1 to 303 residues) fused with TAB1 (437 to 504 residues) expressed in baculovirus infected sf9 cells by SPR assay
Labelling: Kd reported below 4 µM becomes 1.0; at or above becomes 0.0.

Worked cases, answers included:
INSERT INTO results (molecule, label) VALUES
  ('Nc1ncnc2c1ncn2[C@@H]1O[C@H](COP(=O)(O)OP(=O)(O)OP(=O)(O)O)[C@@H](O)[C@H]1O [ADENOSINE TRIPHOSPHATE]', 1.0),
  ('Nc1ncnc2c1ncn2[C@@H]1O[C@H](CO)[C@@H](O)[C@H]1O [ADENOSINE]', 0.0),
  ('Nc1ncnc2c1ncn2[C@@H]1O[C@H](COP(=O)(O)O)[C@@H](O)[C@H]1O [ADENOSINE PHOSPHATE]', 0.0),
  ('CN1CCN(c2cccc3cc(NC(=O)Nc4ccc(Oc5ccnc6[nH]ccc56)cc4)ccc23)CC1', 1.0);

Below 4 µM on Kd? Entry `COc1cc2ncccc2cc1NC(=O)c1csc2cncnc12` 1.0

----------
Biological target: Protein kinase C alpha type (Homo sapiens, UniProt P17252)
Experiment: Inhibition of recombinant full length human N-terminal GST-tagged PKCalpha (1 to 351 residues) expressed in baculovirus expression system
pIC50: −log10 of the molar value.
Result Type: pIC50

The compound `COc1cc2ncccc2cc1NC(=O)c1csc2cncnc12` showed pIC50 equal to < 4.30

----------
Target: Dual specificity mitogen-activated protein kinase kinase 1 (Homo sapiens, UniProt Q02750)
Sequence (Q02750 whole entry): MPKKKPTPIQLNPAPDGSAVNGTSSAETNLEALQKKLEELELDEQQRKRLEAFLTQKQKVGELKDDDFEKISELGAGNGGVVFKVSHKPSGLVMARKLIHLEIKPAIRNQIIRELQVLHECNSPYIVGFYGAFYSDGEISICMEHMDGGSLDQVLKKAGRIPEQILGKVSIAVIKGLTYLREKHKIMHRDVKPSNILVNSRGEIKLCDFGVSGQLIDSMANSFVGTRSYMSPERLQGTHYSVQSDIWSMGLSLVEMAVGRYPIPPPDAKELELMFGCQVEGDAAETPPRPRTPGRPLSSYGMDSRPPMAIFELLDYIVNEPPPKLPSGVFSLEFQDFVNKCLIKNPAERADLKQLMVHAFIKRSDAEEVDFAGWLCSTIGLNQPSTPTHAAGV
Assay: Inhibition of MEK1 (unknown origin)
Result Type: IC50

The compound `COc1cc2ncccc2cc1NC(=O)c1csc2cncnc12` showed IC50 equal to > 50 µM

----------
Biological target: Proto-oncogene tyrosine-protein kinase Src (Homo sapiens)
Assay: Inhibition of recombinant full length human N-terminal GST-tagged SRC (1 to 536 residues) expressed in baculovirus expression system
Result Type: IC50

The compound `COc1cc2ncccc2cc1NC(=O)c1csc2cncnc12` showed IC50 equal to > 50 µM

----------
Molecular target: Protein kinase C beta type (Homo sapiens, UniProt P05771)
Assay: Inhibition of recombinant full length human N-terminal GST-tagged PKCbeta1 (1 to 671 residues) expressed in baculovirus expression system
Result Type: IC50

Protein kinase C beta type (Homo sapiens, UniProt P05771) IC50 of `COc1cc2ncccc2cc1NC(=O)c1csc2cncnc12` is > 50 µM

----------
Biological target: Receptor-type tyrosine-protein kinase FLT3 (Homo sapiens, UniProt P36888)
Sequence (P36888 whole entry): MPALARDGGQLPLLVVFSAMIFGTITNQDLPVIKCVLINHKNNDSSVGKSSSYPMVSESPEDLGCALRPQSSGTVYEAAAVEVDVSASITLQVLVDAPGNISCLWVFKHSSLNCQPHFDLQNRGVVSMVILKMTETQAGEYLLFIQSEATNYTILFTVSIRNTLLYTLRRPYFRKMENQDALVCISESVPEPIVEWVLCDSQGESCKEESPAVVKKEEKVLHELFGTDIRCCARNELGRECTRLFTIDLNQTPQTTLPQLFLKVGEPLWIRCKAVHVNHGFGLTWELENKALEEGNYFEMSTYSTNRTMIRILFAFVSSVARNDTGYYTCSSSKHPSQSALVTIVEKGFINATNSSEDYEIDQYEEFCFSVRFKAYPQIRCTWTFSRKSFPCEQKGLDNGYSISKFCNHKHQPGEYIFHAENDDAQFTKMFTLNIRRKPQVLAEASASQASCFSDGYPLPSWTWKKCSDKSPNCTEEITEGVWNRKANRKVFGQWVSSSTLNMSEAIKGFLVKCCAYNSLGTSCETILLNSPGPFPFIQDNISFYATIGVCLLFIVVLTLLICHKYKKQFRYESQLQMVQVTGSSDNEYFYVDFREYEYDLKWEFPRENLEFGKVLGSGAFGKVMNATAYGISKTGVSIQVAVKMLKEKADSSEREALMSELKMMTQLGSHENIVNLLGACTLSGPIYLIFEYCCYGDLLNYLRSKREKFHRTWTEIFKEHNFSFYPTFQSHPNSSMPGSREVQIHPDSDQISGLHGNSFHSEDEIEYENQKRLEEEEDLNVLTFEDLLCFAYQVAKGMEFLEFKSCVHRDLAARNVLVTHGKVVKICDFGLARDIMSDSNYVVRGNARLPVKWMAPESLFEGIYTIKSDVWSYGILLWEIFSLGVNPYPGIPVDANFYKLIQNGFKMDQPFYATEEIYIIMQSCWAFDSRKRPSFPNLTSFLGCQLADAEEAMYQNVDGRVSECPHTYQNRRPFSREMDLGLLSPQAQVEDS
Test: Inhibition of recombinant human N-terminal GST-tagged FLT3 cytoplasmic domain (564 to 993 residues) expressed in baculovirus expression system
Result Type: IC50 (µM)
One number for each entry, in µM.

The compound `COc1cc2ncccc2cc1NC(=O)c1csc2cncnc12` showed IC50 equal to 0.056

----------
Target: Epithelial discoidin domain-containing receptor 1 (Homo sapiens, UniProt Q08345)
Sequence (Q08345 whole entry, the tested form may be a part): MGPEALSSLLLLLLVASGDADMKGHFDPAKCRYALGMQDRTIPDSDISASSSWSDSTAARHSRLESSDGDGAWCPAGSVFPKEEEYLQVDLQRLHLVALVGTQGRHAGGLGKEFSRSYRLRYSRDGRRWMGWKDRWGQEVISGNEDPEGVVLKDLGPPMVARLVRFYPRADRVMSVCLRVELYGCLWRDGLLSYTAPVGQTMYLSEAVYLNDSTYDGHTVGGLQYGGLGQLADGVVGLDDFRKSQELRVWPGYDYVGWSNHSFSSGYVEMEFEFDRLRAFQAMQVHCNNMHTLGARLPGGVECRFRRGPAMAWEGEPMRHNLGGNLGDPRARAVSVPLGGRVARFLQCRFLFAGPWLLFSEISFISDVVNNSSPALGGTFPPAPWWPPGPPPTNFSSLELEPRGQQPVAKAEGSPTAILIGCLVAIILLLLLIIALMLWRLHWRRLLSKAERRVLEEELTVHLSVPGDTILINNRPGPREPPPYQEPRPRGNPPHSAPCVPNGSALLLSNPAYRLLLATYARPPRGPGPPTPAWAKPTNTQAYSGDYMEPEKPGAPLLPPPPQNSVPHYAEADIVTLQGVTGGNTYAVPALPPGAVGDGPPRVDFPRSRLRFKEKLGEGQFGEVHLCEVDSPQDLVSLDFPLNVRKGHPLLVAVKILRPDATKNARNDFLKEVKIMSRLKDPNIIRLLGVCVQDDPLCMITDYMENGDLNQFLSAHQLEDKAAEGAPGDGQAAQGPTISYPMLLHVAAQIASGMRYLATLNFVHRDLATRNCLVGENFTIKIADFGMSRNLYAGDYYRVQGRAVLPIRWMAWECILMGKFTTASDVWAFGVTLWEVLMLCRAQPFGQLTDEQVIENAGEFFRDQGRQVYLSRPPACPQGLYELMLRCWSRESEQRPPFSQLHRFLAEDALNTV
Assay: Inhibition of recombinant human N-terminal GST-tagged DDR1 cytoplasmic domain (444 to 876 residues) expressed in baculovirus expression system
pIC50: −log10 of the molar value.
Result Type: pIC50

The compound `COc1cc2ncccc2cc1NC(=O)c1csc2cncnc12` showed pIC50 equal to < 4.30

----------
Target: Protein kinase C beta type (Homo sapiens, UniProt P05771)
Assay: Inhibition of recombinant full length human N-terminal GST-tagged PKCbeta2 (1 to 673 residues) expressed in baculovirus expression system
pIC50: −log10 of the molar value.
Result Type: pIC50

The molecule `COc1cc2ncccc2cc1NC(=O)c1csc2cncnc12` showed pIC50 equal to < 4.30

----------
Biological target: Mast/stem cell growth factor receptor Kit (Homo sapiens)
Sequence (P10721 whole entry, the tested form may be a part): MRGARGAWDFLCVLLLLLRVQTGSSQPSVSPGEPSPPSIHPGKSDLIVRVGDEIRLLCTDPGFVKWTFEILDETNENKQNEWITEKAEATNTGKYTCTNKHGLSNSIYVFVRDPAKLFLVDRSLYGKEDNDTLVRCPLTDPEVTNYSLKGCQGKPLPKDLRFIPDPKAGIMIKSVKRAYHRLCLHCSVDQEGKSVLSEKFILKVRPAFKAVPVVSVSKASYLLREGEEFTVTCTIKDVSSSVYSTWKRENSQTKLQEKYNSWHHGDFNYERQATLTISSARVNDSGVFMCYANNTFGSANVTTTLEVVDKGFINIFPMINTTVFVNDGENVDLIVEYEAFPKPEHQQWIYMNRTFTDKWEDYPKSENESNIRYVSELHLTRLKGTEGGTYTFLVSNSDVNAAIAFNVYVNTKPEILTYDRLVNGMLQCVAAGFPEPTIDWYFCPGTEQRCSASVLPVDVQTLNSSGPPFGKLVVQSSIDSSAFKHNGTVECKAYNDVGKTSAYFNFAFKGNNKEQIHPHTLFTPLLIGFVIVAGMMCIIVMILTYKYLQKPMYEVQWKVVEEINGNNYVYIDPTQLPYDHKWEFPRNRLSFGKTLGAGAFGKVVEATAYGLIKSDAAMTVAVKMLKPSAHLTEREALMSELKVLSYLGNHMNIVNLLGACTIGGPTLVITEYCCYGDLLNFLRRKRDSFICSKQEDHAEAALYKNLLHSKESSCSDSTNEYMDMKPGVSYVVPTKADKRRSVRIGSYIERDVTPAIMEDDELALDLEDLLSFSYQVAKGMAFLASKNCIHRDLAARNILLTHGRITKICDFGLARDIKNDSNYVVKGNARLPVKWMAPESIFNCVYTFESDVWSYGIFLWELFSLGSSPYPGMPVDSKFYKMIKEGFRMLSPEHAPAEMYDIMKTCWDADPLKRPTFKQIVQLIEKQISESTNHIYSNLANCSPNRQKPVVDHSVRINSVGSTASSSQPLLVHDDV
Test: Inhibition of recombinant human N-terminal GST-tagged KIT cytoplasmic domain (544 to 976 residues) expressed in baculovirus expression system
pIC50: −log10 of the molar value.
Result Type: pIC50

The compound `COc1cc2ncccc2cc1NC(=O)c1csc2cncnc12` showed pIC50 equal to < 4.30

----------
Target: RAC-alpha serine/threonine-protein kinase (Homo sapiens)
Sequence (P31749 whole entry, the tested form may be a part): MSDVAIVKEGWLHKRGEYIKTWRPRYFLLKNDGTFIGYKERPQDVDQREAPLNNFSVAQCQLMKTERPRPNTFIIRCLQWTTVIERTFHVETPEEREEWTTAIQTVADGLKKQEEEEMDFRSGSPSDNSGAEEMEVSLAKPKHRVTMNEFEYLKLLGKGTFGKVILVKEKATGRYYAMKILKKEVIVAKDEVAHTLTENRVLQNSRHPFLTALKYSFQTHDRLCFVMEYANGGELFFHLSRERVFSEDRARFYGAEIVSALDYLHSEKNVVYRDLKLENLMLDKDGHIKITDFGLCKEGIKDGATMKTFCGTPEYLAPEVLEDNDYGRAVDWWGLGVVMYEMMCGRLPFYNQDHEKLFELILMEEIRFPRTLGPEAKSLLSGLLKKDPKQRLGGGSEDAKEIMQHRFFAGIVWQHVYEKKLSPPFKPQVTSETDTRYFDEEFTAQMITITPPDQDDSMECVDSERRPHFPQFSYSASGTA
Experiment: Inhibition of recombinant human N-terminal GST-tagged AKT1 catalytic domain (104 to 480 residues) expressed in baculovirus expression system
pIC50: −log10 of the molar value.
Result Type: pIC50

The molecule `COc1cc2ncccc2cc1NC(=O)c1csc2cncnc12` showed pIC50 equal to < 4.30

----------
Molecular target: Ephrin type-A receptor 2 (Homo sapiens)
Sequence (P29317 whole entry, the tested form may be a part): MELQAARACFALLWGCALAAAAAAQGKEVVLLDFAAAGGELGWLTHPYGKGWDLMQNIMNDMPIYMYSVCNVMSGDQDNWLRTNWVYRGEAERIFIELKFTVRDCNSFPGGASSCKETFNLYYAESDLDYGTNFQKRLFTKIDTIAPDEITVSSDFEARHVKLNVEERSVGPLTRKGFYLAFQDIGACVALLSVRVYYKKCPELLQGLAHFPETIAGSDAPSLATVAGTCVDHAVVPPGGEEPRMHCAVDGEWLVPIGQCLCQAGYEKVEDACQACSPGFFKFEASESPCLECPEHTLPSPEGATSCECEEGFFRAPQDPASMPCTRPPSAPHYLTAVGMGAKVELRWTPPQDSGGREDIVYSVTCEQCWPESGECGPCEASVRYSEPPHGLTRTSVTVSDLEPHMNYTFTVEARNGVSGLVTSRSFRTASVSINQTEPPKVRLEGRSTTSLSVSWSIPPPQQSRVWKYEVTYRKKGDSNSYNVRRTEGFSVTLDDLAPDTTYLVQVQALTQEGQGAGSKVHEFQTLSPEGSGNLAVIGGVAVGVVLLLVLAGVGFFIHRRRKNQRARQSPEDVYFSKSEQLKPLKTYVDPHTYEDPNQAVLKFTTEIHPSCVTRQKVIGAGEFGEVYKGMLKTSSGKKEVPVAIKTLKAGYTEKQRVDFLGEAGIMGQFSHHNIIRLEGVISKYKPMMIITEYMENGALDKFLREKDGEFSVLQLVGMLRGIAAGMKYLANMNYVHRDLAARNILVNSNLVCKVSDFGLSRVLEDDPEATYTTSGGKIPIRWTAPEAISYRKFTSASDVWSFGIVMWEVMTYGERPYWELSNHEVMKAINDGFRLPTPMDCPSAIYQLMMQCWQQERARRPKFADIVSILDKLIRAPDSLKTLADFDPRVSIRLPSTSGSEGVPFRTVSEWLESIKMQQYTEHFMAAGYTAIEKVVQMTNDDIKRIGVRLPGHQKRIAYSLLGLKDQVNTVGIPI
Assay: Inhibition of recombinant human N-terminal GST-tagged EPHA2 cytoplasmic domain (572 to 976 residues) expressed in baculovirus expression system
pIC50: −log10 of the molar value.
Result Type: pIC50

Ephrin type-A receptor 2 (Homo sapiens) pIC50 of `COc1cc2ncccc2cc1NC(=O)c1csc2cncnc12` is < 4.30
